targetOrTestSystem: Muscarinic M3 receptor (Homo sapiens)
Construct: purchased Receptor Biology, Inc; host or cells: CHO cells (membranes)
protocolNotes: Inhibition of binding of [3H]-N-methylscopolamine to muscarinic M3 receptor
conditionDetails: selectivity ratio of Ki values, binding
Experimental: Tests on Inhibition of Binding to Muscarinic Receptors These tests were performed according to a modification of the method of Hargreaves et al. (Br. J. Pharmacol. 107: 494-501, 1992). […] After adding a scintillator (Microscinti 0; Packard Instruments Co., Inc.), the radioactivity was counted by a liquid scintillation counter (TopCount™; Packard Instruments Co., Inc.). Non-specific binding was measured in the presence of 1 μM N-methylscopolamine.
Assign labels as follows, please: 1.0 for M2/M3 (ratio of binding Ki) below 200; 0.0 for M2/M3 (ratio of binding Ki) equal to or exceeding 200.

The examples below pair each entry with its known result.
Cl.Cl.Nc1cccc(CN2CCC(NC(=O)[C@](O)(c3ccccc3)[C@@H]3CCC(F)(F)C3)CC2)n1 | 1.0
Cc1cc(N)cc(CN2CCC(NC(=O)[C@](O)(c3ccccc3)[C@@H]3CCC(F)(F)C3)CC2)c1.Cl.Cl | 0.0
Cc1cccc(CN2CCC(NC(=O)[C@](O)(c3ccccc3)[C@@H]3CCC(F)(F)C3)CC2)n1 | 0.0
COc1cc(CN2CCC(NC(=O)[C@](O)(c3ccccc3)[C@@H]3CCC(F)(F)C3)CC2)ccc1N | 0.0
COc1cc(N)nc(CN2CCC(NC(=O)[C@](O)(c3ccccc3)[C@@H]3CCC(F)(F)C3)CC2)c1.Cl.Cl | 0.0
Nc1cc(N)cc(CN2CCC(NC(=O)[C@](O)(c3ccccc3)[C@@H]3CCC(F)(F)C3)CC2)c1 | 0.0

Given COc1cc(N)cc(CN2CCC(NC(=O)[C@](O)(c3ccccc3)[C@@H]3CCC(F)(F)C3)CC2)c1.Cl.Cl , is recorded M2/M3 (ratio of binding Ki) strictly lower than 200?
0.0

For this compound, is M2/M3 (ratio of binding Ki) lower than 200? CC(C)=CCCN1CCC(NC(=O)[C@](O)(c2ccccc2)[C@@H]2CCC(F)(F)C2)CC1
0.0

Is it true that M2/M3 (ratio of binding Ki) reported for O=C(NC1CCN(Cc2ccccn2)CC1)[C@](O)(c1ccccc1)[C@@H]1CCC(F)(F)C1 is less than 200?
1.0

---

targetOrTestSystem: Muscarinic M3 receptor (Homo sapiens, UniProt P20309)
Sequence (P20309 whole entry): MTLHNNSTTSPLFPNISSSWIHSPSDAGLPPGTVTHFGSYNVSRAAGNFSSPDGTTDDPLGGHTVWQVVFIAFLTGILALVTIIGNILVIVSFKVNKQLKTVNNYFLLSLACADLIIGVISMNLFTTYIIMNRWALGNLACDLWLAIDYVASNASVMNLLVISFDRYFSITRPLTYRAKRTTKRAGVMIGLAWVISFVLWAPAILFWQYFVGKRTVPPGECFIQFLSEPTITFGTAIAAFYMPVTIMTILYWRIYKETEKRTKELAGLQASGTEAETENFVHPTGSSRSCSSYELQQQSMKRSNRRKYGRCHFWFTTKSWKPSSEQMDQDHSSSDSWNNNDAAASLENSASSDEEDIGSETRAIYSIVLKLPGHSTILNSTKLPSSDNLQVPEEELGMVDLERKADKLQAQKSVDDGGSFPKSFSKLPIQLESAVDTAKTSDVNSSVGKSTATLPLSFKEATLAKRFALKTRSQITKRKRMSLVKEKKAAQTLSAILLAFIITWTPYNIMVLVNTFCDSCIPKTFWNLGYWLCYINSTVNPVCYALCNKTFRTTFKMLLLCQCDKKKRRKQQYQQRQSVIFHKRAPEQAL
pKi: −log10 of the molar value.
Param threshold (8) applies to pKi; output Met when value >= threshold, Not met when value < threshold.

Reference set, count: 5
Cc1cc(N)cc(CN2CCC(NC(=O)[C@](O)(c3ccccc3)[C@@H]3CCC(F)(F)C3)CC2)c1.Cl.Cl [Example 22, dihydrochloride] | Not met
COc1cc(CN2CCC(NC(=O)[C@](O)(c3ccccc3)[C@@H]3CCC(F)(F)C3)CC2)ccc1N | Not met
CC(C)=CCCN1CCC(NC(=O)[C@](O)(c2ccccc2)[C@@H]2CCC(F)(F)C2)CC1 | Met
Nc1cc(N)cc(CN2CCC(NC(=O)[C@](O)(c3ccccc3)[C@@H]3CCC(F)(F)C3)CC2)c1 | Not met
Cl.Cl.Nc1cccc(CN2CCC(NC(=O)[C@](O)(c3ccccc3)[C@@H]3CCC(F)(F)C3)CC2)n1 [Example 20, dihydrochloride] | Met

Quick check: does COc1cc(N)cc(CN2CCC(NC(=O)[C@](O)(c3ccccc3)[C@@H]3CCC(F)(F)C3)CC2)c1.Cl.Cl [Example 31, dihydrochloride] have pKi greater than or equal to 8?
Not met

Could you please find out whether COc1cc(N)nc(CN2CCC(NC(=O)[C@](O)(c3ccccc3)[C@@H]3CCC(F)(F)C3)CC2)c1.Cl.Cl [Example 21, dihydrochloride] has pKi that meets 8 or exceeds it?
Not met
